Origin of values: the supplement of paper PMC10567573

B1: C1orf137 (parent)
chain: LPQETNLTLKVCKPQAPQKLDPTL

# Variants of: B1
# test.protocol: protein stability index of a GFP-peptide fusion (GPS, HEK-293T) (PSI 1-6); higher = more stable;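 note: lentivirally expressed fusions sorted by FACS into six bins by GFP to DsRed ratio, PSI derived from sequencing read proportions per bin multiplied by bin number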
# assay.context: c terminus: a fixed tail appended
Record 1 whenever protein stability index is at 3 or higher; record -1 when lower.

[[record]]
polymer_sequence = "LPQETNLTLKVMKPQAPQKLDPTL [C12M]"
cat = 1


Threshold query (protein stability index >= 3) on LPQETVLTLKVCKPQAPQKLDPTL [N6V]
1

For LPQETNLTLKVCKPQAPQKLDPWL [T23W] then?
-1

Then what about the variant LDQETNLTLKVCKPQAPQKLDPTL [P2D] ?
1

Input LPQETNLTLKECKPQAPQKLDPTL [V11E]
1

Would you mind doing LPQETNLCLKVCKPQAPQKLDPTL [T8C] as well?
1

Same for LPQLTNLTLKVCKPQAPQKLDPTL [E4L]
-1

Follow-up item: LPQETNDTLKVCKPQAPQKLDPTL [L7D]
1

And then LPQETNLTLKVCKPQAPQKLVPTL [D21V] , what is it?
-1

LPQETNLTLKVCKPQARQKLDPTL [P17R] , same question.
1

What do you get for LPQETNLTLKVCKPQAPQKLDGTL [P22G] ?
1

Do the same for LPQETNLTLKVCNPQAPQKLDPTL [K13N] please
1

// repeat for LPQETNLTWKVCKPQAPQKLDPTL [L9W] and report
1

Entry to check: LPQETNLTGKVCKPQAPQKLDPTL [L9G]
1

Please answer likewise for LPQETDLTLKVCKPQAPQKLDPTL [N6D]
1
